Tested on: CCRF-CEM
experiment_description: NCI tumour cell line growth inhibition, 48 h
Activity calls are given as the source filed them. No stated cut-off is given here; in the data, active = GI50 up to about 1.1 µM and inactive = higher.
Each entry below carries its reported GI50.

# molecule, GI50
measured = [
    ("CNC1=Nc2ccccc2C(=O)N2CSCC12 (stereo not drawn)", "> 100 µM (inactive)"),
    ("O=C(O)c1cc2c(cc1S(=O)(=O)O)C1C(C3C2C2(Cl)C(Cl)=C(Cl)C3(Cl)C2(Cl)Cl)C2(Cl)C(Cl)=C(Cl)C1(Cl)C2(Cl)Cl (stereo not drawn)", "0.173 µM (active)"),
    ("CCSC1=N/C(=C\\c2ccc(N(C)C)cc2)C(Cl)=N1", "> 100 µM (inactive)"),
    ("CC/N=C(/C#N)NCC", "75.2 µM (inactive)"),
    ("CCCC(=O)C(CC)/C(CCC(=O)N(Cc1ccccc1)Cc1ccccc1)=N/NC(=O)C[N+](C)(C)C (stereo not drawn)", "> 100 µM (inactive)"),
    ("C=C(C)C(O)CCC1(C)C=Cc2c(c(C)cc3c2[nH]c2ccccc23)O1 (stereo not drawn)", "7.74 µM (inactive)"),
    ("CO[C@H](C)[C@](O)(C(=O)OCC1=CCN2CC[C@@H](O)[C@H]12)C(C)C", "> 100 µM (inactive)"),
    ("Cc1ccc(N2C(=O)C3c4[nH]c5ccccc5c4C4CCC(C(C)(C)C)CC4C3C2=O)cc1 (stereo not drawn)", "5.36 µM (inactive)"),
    ("COc1cc(C(=O)Oc2c(C(C)=O)sc3c2c(=O)n(-c2ccccc2)c(=S)n3-c2ccccc2)cc(OC)c1OC", "15.3 µM (inactive)"),
    ("O=C(CCC(=O)Nc1ccc(Cl)cc1)CC(=O)c1ccc2ccccc2c1", "> 100 µM (inactive)"),
    ("COC(=O)C(Cc1ccccc1)NC(=O)CSc1nnc(COc2ccc(Cl)cc2)n1-c1ccccc1 (stereo not drawn)", "16.8 µM (inactive)"),
    ("Fc1cccc2c1cc1ccc3cccc4ccc2c1c34", "> 100 µM (inactive)"),
    ("O=C(Nc1nc2ncn(CCO)c2c(=S)[nH]1)c1ccccc1", "> 100 µM (inactive)"),
    ("Oc1ccc(Oc2cc3c(cc2Oc2ccc(O)cc2)-c2nc-3nc3[nH]c(nc4nc(nc5[nH]c(n2)c2cc(Oc6ccc(O)cc6)c(Oc6ccc(O)cc6)cc52)-c2cc(Oc5ccc(O)cc5)c(Oc5ccc(O)cc5)cc2-4)c2cc(Oc4ccc(O)cc4)c(Oc4ccc(O)cc4)cc32)cc1", "> 100 µM (inactive)"),
    ("[O-]c1c2c(nn1-c1ccccc1)c1ccccc1c[n+]2Cc1ccccc1", "> 100 µM (inactive)"),
    ("CCOC(=O)C1(NC(=O)OC(C)(C)C)CCc2[nH]oc(=O)c2C1 (stereo not drawn)", "> 100 µM (inactive)"),
    ("CC1=C[C@@H]2[C@@H](CC(CO)=C[C@H]3[C@@H]4C(C)(C)[C@]4(OCC(C)C)[C@H](OCC(C)C)[C@@H](C)[C@]23O)C1=O", "0.741 µM (active)"),
    ("COC1=CC(=O)C2=C(C1=O)[C@H]1CC[C@]3(C)C(=O)CC[C@H]3[C@@H]1CC2", "3.62 µM (inactive)"),
]

* * *

Test system: A498
experiment_description: NCI tumour cell line growth inhibition, 48 h
Activity calls are given as the source filed them. No stated cut-off is given here; in the data, active = GI50 up to about 1.1 µM and inactive = higher. Where a SMILES comes first, the peptide text is derived from it. The star is where a group is joined. Boc = CC(C)(C)OC(=O)*; OBn = c1ccc(CO*)cc1
Outcome codes: active, inactive

# molecule, label_class
rows = [
    ("O=C(O)C(O)C(O)C(O)C(=O)CO (centres undefined)", "inactive"),
    ("CC(C)CC(NC(=O)OC(C)(C)C)C(=O)N1CCCC1C(=O)OCc1ccccc1 (stereo not drawn) (Boc-Leu-Pro-OBn; configuration not given here)", "inactive"),
    ("CCOC(=O)C1N(S(=O)(=O)c2ccc(C)cc2)CCC12c1ccccc1NC2c1ccc(OC)c(OC)c1 (centres undefined)", "inactive"),
    ("C[N+]1(CCNP(=S)(NCC[N+]2(C)Cc3c(ccc4c3OCO4)C3C2c2cc4c(cc2C[C@@H]3O)OCO4)NCC[N+]2(C)Cc3c(ccc4c3OCO4)C3C2c2cc4c(cc2C[C@@H]3O)OCO4)Cc2c(ccc3c2OCO3)C2C1c1cc3c(cc1C[C@H]2O)OCO3 (some centres undefined)", "active"),
]

* * *

System: SK-OV-3
experiment_description: NCI tumour cell line growth inhibition, 48 h
Calls of active or inactive are those of the source. Rule as the data show it: active = GI50 up to about 1.1 µM and inactive = higher.
Outcome codes: true = active, false = inactive

# compound, label_class
rows = [
    ("c1ccc(OC2=NC3=S(S2)SC(Oc2ccccc2)=N3)cc1", "false"),
    ("Cn1c2ccccc2c2cc(-c3ccccc3)c3c(c21)C(=O)C=CC3=O", "false"),
    ("O=C1CC2CC(CC3(CO3)C2)C1F (stereo not given)", "false"),
    ("O=c1nc(N2CCCCC2)sc2[nH]c3ccccc3c12", "false"),
    ("CC(O)CCCOC(c1ccccc1)(c1ccccc1)c1ccccc1 (stereo not given)", "false"),
    ("c1csc(-c2csc(-c3cccs3)c2)c1", "false"),
    ("CCCn1c(SC)nc(COC(=O)NC)c1COC(=O)NC", "false"),
    ("CC(=O)O[C@H]1C(=O)[C@@]2(C)[C@H]([C@H](OC(=O)c3ccoc3)[C@]3(O)C[C@H](OC(=O)[C@H](O)[C@@H](NC(=O)c4ccccc4)c4ccccc4)C(C)=C1C3(C)C)[C@]1(OC(C)=O)CO[C@@H]1C[C@@H]2O", "true"),
    ("CC(C)(C)N/N=C(\\C(=O)Nc1ccc([N+](=O)[O-])cc1[N+](=O)[O-])c1nc2ccc([N+](=O)[O-])cc2nc1O", "false"),
    ("Nc1nc(=O)c2c([nH]1)NCC(CNc1ccc(C(=O)N[C@@H](CCC(=O)O)C(=O)O)cc1)N2C=O (stereo not given in full) [LEUCOVORIN CALCIUM]", "false"),
]

* * *

System: NCI-H522
experiment_description: NCI tumour cell line growth inhibition, 48 h
The source made the active and inactive calls. Cut-off read from the data, not from the text of the source: active = GI50 up to about 1.1 µM and inactive = higher.
Outcome codes: active, inactive

# compound, label_class
measured = [
    ("NC(=O)NC(CC(=O)O)C(=O)O (stereo unspecified)", "inactive"),
    ("O=C1C(Cl)C(c2cccc([N+](=O)[O-])c2)N1n1cnc2ccccc2c1=O (stereo unspecified)", "inactive"),
    ("O=C1Cc2c(-c3ccccc3)cc(-c3ccc4ccccc4c3)nc2-c2ccccc2N1", "inactive"),
    ("CC(=O)C1=C(C)NC(=C(C#N)C#N)C(C#N)=C1", "inactive"),
    ("c1ccc([P+](Cc2ccccc2C[P+](c2ccccc2)(c2ccccc2)c2ccccc2)(c2ccccc2)c2ccccc2)cc1", "inactive"),
    ("N#Cc1c(N)[nH]c2ccc(Sc3ccccc3)cc12", "active"),
    ("O=c1[nH]c(-n2[nH]c3c(c2=O)CCCC3)nc(O)c1-c1ccccc1", "inactive"),
    ("O=c1[nH]c(=O)n(C2CC(O)C(COP(=O)(O)OC3CC(n4cc(F)c(=O)[nH]c4=O)OC3COP(=O)(O)OC3CC(n4cc(F)c(=O)[nH]c4=O)OC3COP(=O)(O)OC3CC(n4cc(F)c(=O)[nH]c4=O)OC3COP(=O)(O)OC3CC(n4cc(F)c(=O)[nH]c4=O)OC3COP(=O)(O)OC3CC(n4cc(F)c(=O)[nH]c4=O)OC3COP(=O)(O)OC3CC(n4cc(F)c(=O)[nH]c4=O)OC3COP(=O)(O)OC3CC(n4cc(F)c(=O)[nH]c4=O)OC3COP(=O)(O)OC3CC(n4cc(F)c(=O)[nH]c4=O)OC3COP(=O)(O)OC3CC(n4cc(F)c(=O)[nH]c4=O)OC3CO)O2)cc1F (stereo unspecified)", "active"),
    ("N#CC12C3C4CC5C6C4C1C6C(O)(C53)N2Cc1ccccc1 (stereo unspecified)", "inactive"),
    ("CC(C(N)=O)N(C)C(=O)c1cnc2ccccc2c1 (stereo unspecified)", "inactive"),
    ("Cc1cn([C@H]2C[C@H](O)[C@@H](CO)O2)c(=O)nc1N", "inactive"),
]

* * *

Test system: RPMI-8226
experiment_description: NCI tumour cell line growth inhibition, 48 h
Active and inactive are the calls of the source. Rule as the data show it: active = GI50 up to about 1.1 µM and inactive = higher.
Outcome codes: label 1 for active, label 0 for inactive

# molecule, label_class
records = [
    ("COC(=O)C1=C(OC)C(=P2(c3ccccc3)CC(c3ccccc3)=C2c2ccccc2)C(C(=O)OC)=C1C(=O)OC (stereo not drawn)", "label 0"),
    ("CCCCN1C(=O)c2c(Br)sc(Br)c2C1=O", "label 0"),
    ("Nc1ccc2n[se]nc2c1", "label 0"),
    ("Cc1cc(C)c2c(=N)c3ccccc3n(CCCCCCCCn3c4ccccc4c(=N)c4c(C)cc(C)nc43)c2n1", "label 1"),
    ("CC(C)(C)C1=CC(=C2C(=O)C(=O)c3ccccc3C2=O)C=C(C(C)(C)C)C1=O", "label 0"),
    ("C1CSCCSCCCSC2CCCCC2SC1 (stereo not drawn)", "label 0"),
    ("CC(C)(C)[Si](C)(C)OCCC1CC2(S(=O)(=O)C3=CC=C=C=C3)ON1CC2S(=O)(=O)c1ccccc1 (stereo not drawn)", "label 0"),
    ("CC1(C)C2CCC(N)(C2)C1O (stereo not drawn)", "label 0"),
    ("C=CCN1C(=O)C(=O)N(CC=C)C(=O)C1=O", "label 0"),
    ("Cc1cc(C)nc(NS(=O)(=O)c2ccc(Nc3c4ccccc4nc4c(C(=O)NNCCO)cccc34)cc2)n1", "label 0"),
    ("O=C(/C=C/c1ccccc1)CC(=O)CCC(=O)Nc1ccc(Cl)cc1", "label 0"),
    ("COC(=O)C1=C(C(=O)OC)C23CC1C1C(C(=O)OC)=C(C(=O)OC)C12C1C=CC3C2C(=O)OC(=O)C21 (stereo not drawn)", "label 0"),
    ("COc1ccc(/C=C2\\CN(C)C/C(=C\\c3ccc(OC)cc3)C2=O)cc1", "label 0"),
    ("COC(=O)C1=C(C(=O)Nc2cccnc2Cl)N(c2ccc(OC)cc2[N+](=O)[O-])C(c2ccc(C)cc2)=CC1c1ccc(OC)cc1OC (stereo not drawn)", "label 0"),
    ("CCCCCCOc1ccc(C(=O)NO)cc1", "label 0"),
    ("COc1ccc(C2[C@@H](Cl)C(=O)N2c2ccc(OC)cc2)cc1 (stereo partly drawn)", "label 0"),
    ("NC(=O)NC(CC(=O)O)C(=O)O (stereo not drawn)", "label 0"),
    ("CCOC(=O)C1(NC(=O)OC(C)(C)C)CCc2[nH]oc(=O)c2C1 (stereo not drawn)", "label 0"),
    ("COc1ccc(C(=O)Nc2ccccc2C#N)cc1", "label 0"),
    ("Cc1cn([C@H]2C[C@H](O)[C@@H](CO)O2)c(=O)nc1N", "label 0"),
    ("CO[C@H]1O[C@@H]2CO[C@@H](c3ccccc3)O[C@H]2[C@@H]2CC=CCC[C@]12O", "label 0"),
    ("C=C(CCC(=O)N(CCc1c[nH]c2ccccc12)C(=O)c1ccccc1CSCC)C(=O)OC", "label 0"),
    ("O=C(O)C(O)C(O)C(O)C(=O)CO (stereo not drawn)", "label 0"),
    ("O=C(NCP(=O)(Oc1ccccc1)Oc1ccccc1)OCc1ccccc1", "label 0"),
    ("O=C1C=CC(=O)C(CNc2ccc(C(=O)OC34CC5CC(CC(C5)C3)C4)cc2)=C1Br", "label 0"),
    ("COc1cccc(Cc2cc(=O)c3ccc(C)nc3[nH]2)c1", "label 0"),
    ("O=c1oc2ccccc2n1CCCn1c(=O)oc2ccccc21", "label 0"),
    ("O=C(O)/C=C/c1ccc2c(c1)CC1(Cc3ccccc3C1)C2", "label 0"),
    ("C[C@@]12[Se]c3ccccc3[C@]1(C)[Se]c1ccccc12", "label 0"),
    ("O=C1CCSc2nc(-c3ccc4c(c3)OCO4)nn21", "label 0"),
    ("CC[C@@H]([C@H](O)c1ccccc1Cl)[N+](=O)[O-]", "label 0"),
    ("CCOC(=O)C(=O)/C(=C/NC(=S)c1ccncc1)C(=O)OCC", "label 0"),
    ("COC(=O)NC1(NC(=O)OC)NC(=O)c2cc(OC)c(OC)cc2N1", "label 0"),
    ("CCOC(=O)CCC(NC(=O)Cc1ccc(Oc2nc3ccccc3nc2-c2ccccc2)cc1)C(=O)OCC (stereo not drawn)", "label 0"),
    ("CCOC(=O)/C(C#N)=C/c1coc2cc(C)cc(C)c2c1=O", "label 0"),
    ("O=C(O)c1ccccc1C1CCCc2c1[nH]c1ccccc21 (stereo not drawn)", "label 0"),
    ("Cc1c(C(=O)C/C(=N\\O)C(=O)Nc2cc(Cl)c(Cl)cc2Cl)[n+]([O-])c2ccccc2[n+]1[O-]", "label 0"),
    ("CC(C)CC(NC(=O)C(C)(CI)Cc1ccccc1)C(=O)Nc1ccccc1 (stereo not drawn)", "label 0"),
    ("C/C(=N\\NC(=S)N1CCCCC1)c1cccc(C)n1", "label 1"),
    ("C=C1C(=O)O[C@@H]2[C@H](O)[C@@H](C)[C@@H]3C=CC(=O)[C@@]3(C)[C@H](OC(=O)C=C(C)C)[C@H]12", "label 1"),
    ("CC(C)NC(C)C(C)c1ccccc1 (stereo not drawn)", "label 0"),
    ("O=S(=O)(N=S(c1ccccc1)c1ccccc1)c1ccccc1", "label 0"),
    ("O=C(O)C1(Cc2ccccc2)Cc2cc3c(cc2C1)CCC3", "label 0"),
]
